Assay read-out pIC50; system under study: UniProtKB P43235.
Sequence (P43235 whole entry): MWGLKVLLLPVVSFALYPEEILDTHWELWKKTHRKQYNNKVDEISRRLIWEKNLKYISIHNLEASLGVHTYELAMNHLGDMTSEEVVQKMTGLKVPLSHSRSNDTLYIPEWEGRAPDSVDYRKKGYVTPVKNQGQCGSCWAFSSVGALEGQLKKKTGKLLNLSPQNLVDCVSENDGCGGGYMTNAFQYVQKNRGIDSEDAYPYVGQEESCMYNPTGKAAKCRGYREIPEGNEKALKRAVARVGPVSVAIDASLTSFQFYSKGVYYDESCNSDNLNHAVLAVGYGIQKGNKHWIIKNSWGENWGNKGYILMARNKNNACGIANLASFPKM
Keep it numeric: pIC50 is minus log10 of the concentration in mol/L.

>>> recorded_measurement("CCCC[C@H](NC(=O)O[C@H](Cn1cnc(-c2ccc(C(F)(F)F)cc2)c1)C(C)(C)C)C(=O)C(=O)Nc1nccs1")
8.24
>>> recorded_measurement("CCCC[C@H](NC(=O)O[C@H](Cc1nnc(-c2ccc(F)cc2)o1)C(C)(C)C)C(=O)C(=O)N[C@H](C)c1ccccc1")
9.43
>>> recorded_measurement("CCCC[C@H](NC(=O)O[C@H](Cc1nnc(-c2ccc(F)cc2)o1)C(C)(C)C)C(=O)C(=O)NCc1cccnc1")
8.55

From here, focus on the item given below.
Request: Output measured pIC50 for this item: CCCC[C@H](NC(=O)O[C@H](CN1CCN(c2ccc(C(F)(F)F)cc2)C1=O)C(C)(C)C)C(=O)C(=O)Nc1ccn[nH]1
Result: 9.47
